Exercise: state measured pIC50 for each of the compounds provided.
Molecular target: Polyunsaturated fatty acid 5-lipoxygenase (Homo sapiens, UniProt P09917)
Sequence (P09917 whole entry): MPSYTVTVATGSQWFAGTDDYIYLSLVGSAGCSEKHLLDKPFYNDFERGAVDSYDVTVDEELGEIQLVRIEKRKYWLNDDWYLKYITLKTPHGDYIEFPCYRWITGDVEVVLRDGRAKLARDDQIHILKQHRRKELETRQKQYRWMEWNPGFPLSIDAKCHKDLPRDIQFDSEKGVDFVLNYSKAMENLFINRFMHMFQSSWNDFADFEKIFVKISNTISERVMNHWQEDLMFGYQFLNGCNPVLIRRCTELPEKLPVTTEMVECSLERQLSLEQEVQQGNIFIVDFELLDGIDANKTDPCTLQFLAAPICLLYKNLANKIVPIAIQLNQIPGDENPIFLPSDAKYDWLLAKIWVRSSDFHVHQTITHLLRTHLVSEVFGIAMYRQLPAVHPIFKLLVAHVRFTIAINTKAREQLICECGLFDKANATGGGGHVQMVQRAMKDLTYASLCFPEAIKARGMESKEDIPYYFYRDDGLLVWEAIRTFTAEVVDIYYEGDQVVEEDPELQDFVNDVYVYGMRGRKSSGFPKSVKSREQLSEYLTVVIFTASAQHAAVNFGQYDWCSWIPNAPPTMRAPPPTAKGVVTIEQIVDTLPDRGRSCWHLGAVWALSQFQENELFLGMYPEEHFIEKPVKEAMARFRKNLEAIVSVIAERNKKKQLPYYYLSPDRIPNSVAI
Assay: Inhibition of 5-lipoxygenase-mediated 5(S)-H(p)ETE formation in A23187-stimulated human PMNL incubated 10 mins prior to A23187 challenge
Numbers only, as −log10 of the molar value.

Dear colleague, could you send me pIC50 for each of the items below? Thanks.
1. CCCCC(Cc1cccc(OCCc2ccccc2)c1OCCc1ccccc1)C(=O)O (stereo not given)
2. CCCCC(Oc1cc(OCCc2ccccc2)cc(OCCc2ccccc2)c1)C(=O)O (stereo not given)
3. CCCCC(Sc1nc(OCCc2ccc(C#N)cc2)cc(OCCc2ccc(C#N)cc2)n1)C(=O)O (stereo not given)
4. CCCCC(Sc1nc(OCCc2ccc(OC(F)(F)F)cc2)cc(OCCc2ccc(OC(F)(F)F)cc2)n1)C(=O)O (stereo not given)
5. CCCCC(Sc1nc(OCCCc2ccccc2)cc(OCCCc2ccccc2)n1)C(=O)O (stereo not given)

OUT:
[5.68, 6.22, 6.15, 6.30, 6.05]

* * *

Target: Polyunsaturated fatty acid 5-lipoxygenase (Homo sapiens) (UniProt P09917)
Sequence (P09917 whole entry): as above
Assay: Inhibition of human recombinant 5-lipoxygenase-mediated product formation from arachidonic acid assessed as remaining activity at 10 uM after 5 to 10 mins by HPLC analysis
readout kind: Activity (%)
Answers are plain numbers, in %.

CCCCC(Cc1ccc(OCCc2ccccc2)cc1OCCc1ccccc1)C(=O)O (stereo not given) = 85.6

Dear colleague, could you send me Activity for each of the items below? Thanks.
1. CCCC/C(=C\c1cc(OCCC2CCCCC2)ccc1OCc1ccc(C(F)(F)F)cc1)C(=O)O
2. CCCC/C(=C\c1cccc(OCCc2ccccc2)c1OCCc1ccccc1)C(=O)O
3. O=C(O)CSc1nc(OCCc2ccccc2)cc(OCCc2ccccc2)n1
4. CCCCC(Cc1cc(OCCc2ccccc2)ccc1OCCc1ccccc1)C(=O)O (stereo not given)

OUT:
[55.5, 91.3, 57, 65.5]

* * *

Target: Polyunsaturated fatty acid 5-lipoxygenase (Homo sapiens, UniProt P09917)
Test: Inhibition of human recombinant 5-lipoxygenase-mediated product formation from arachidonic acid after 5 to 10 mins by HPLC analysis
Exercise: state measured pIC50 for each of the compounds provided.
One number for each entry, as −log10 of the molar value.

Dear colleague, could you send me pIC50 for each of the items below? Thanks.
1. CCCCC(Sc1nc(OCCc2ccc(C#N)cc2)cc(OCCc2ccc(C#N)cc2)n1)C(=O)O (stereo not given)
2. CCC(Sc1nc(OCCc2ccccc2)cc(OCCc2ccccc2)n1)C(=O)O (stereo not given)
3. CCCC/C(=C\c1cc(OCCC2CCCCC2)ccc1OCc1ccc(C(F)(F)F)cc1)C(=O)O
4. CCCCC(Sc1nc(OCCC2CCCCC2)cc(OCCC2CCCCC2)n1)C(=O)O (stereo not given)
5. CCCCC(Sc1nc(OCCCCc2ccccc2)cc(OCCCCc2ccccc2)n1)C(=O)O (stereo not given)

OUT:
1. 5.18
2. 5.05
3. 5.00
4. 5.05
5. 5.66

* * *

Target: Polyunsaturated fatty acid 5-lipoxygenase (Homo sapiens)
Assay: Inhibition of human recombinant 5-lipoxygenase-mediated product formation from arachidonic acid after 5 to 10 mins by HPLC analysis
pIC50: −log10 of the molar value.
readout kind: pIC50

For orientation, consider the following solved cases.
CCCC/C(=C\c1cc(OCCC2CCCCC2)ccc1OCCC1CCCCC1)C(=O)O = < 5.00
CCCC/C(=C\c1cc(OCCc2ccc(C(F)(F)F)cc2)ccc1OCCc1ccc(C(F)(F)F)cc1)C(=O)O = < 5.00

Here's the next entry for you.
IN: Dear colleague, I am looking for the recorded pIC50 of the following compound: CCCC/C(=C\c1cccc(OCCc2ccccc2)c1OCCc1ccccc1)C(=O)O
OUT: < 5.00

* * *

Biological target: Polyunsaturated fatty acid 5-lipoxygenase (Homo sapiens)
Test: Inhibition of human recombinant 5-lipoxygenase-mediated product formation from arachidonic acid after 5 to 10 mins by HPLC analysis
readout kind: IC50

CCCC/C(=C\c1cc(OCCc2ccccc2)cc(OCCc2ccccc2)c1)C(=O)O = > 10 µM
O=C(O)CSc1nc(OCCc2ccccc2)cc(OCCc2ccccc2)n1 = > 10 µM

Here's the next entry for you.
IN: Dear colleague, I am looking for the recorded IC50 of the following compound: CCCCC(Cc1cc(OCCc2ccccc2)ccc1OCCc1ccccc1)C(=O)O (stereo not drawn)
OUT: > 10 µM

* * *

Biological target: Prostaglandin G/H synthase 1 (Ovis aries)
Assay: Inhibition of ovine COX-1 mediated formation of 12-HHT from arachidonic acid assessed as remaining activity at 10 uM after 5 mins by HPLC analysis
Exercise: state measured Activity for each of the molecules provided.
Give your result as the value with the unit written after it.

For orientation, consider the following solved cases.
CCCC/C(=C\c1cccc(OCCc2ccccc2)c1OCCc1ccccc1)C(=O)O = 86.8%
CCCC/C(=C\c1cc(OCCc2ccccc2)ccc1OCCc1ccccc1)C(=O)O = 68%
CCCCC(Oc1cc(OCCc2ccccc2)cc(OCCc2ccccc2)c1)C(=O)O (stereo not drawn) = 71.6%

Dear colleague, could you send me Activity for each of the items below? Thanks.
1. CCCC/C(=C\c1cc(OCCc2ccc(C(F)(F)F)cc2)ccc1OCCc1ccc(C(F)(F)F)cc1)C(=O)O
2. CCCCC(Cc1cc(OCCc2ccccc2)cc(OCCc2ccccc2)c1)C(=O)O (stereo not drawn)
3. CCCC/C(=C\c1cc(OCc2ccc(C(F)(F)F)cc2)ccc1OCc1ccc(C(F)(F)F)cc1)C(=O)O
4. CCCCC(Sc1cc(OCCc2ccccc2)cc(OCCc2ccccc2)c1)C(=O)O (stereo not drawn)
5. CCCCC(Cc1cc(OCCc2ccccc2)ccc1OCCc1ccccc1)C(=O)O (stereo not drawn)

OUT:
["81%", "78.7%", "82.6%", "71.3%", "63.8%"]

* * *

Biological target: Polyunsaturated fatty acid 5-lipoxygenase (Homo sapiens)
Test: Inhibition of human recombinant 5-lipoxygenase-mediated product formation from arachidonic acid after 5 to 10 mins by HPLC analysis
Exercise: state measured pIC50 for each of the compounds provided.
Numbers only, as −log10 of the molar value.

For orientation, consider the following solved cases.
CCCCC(Sc1nc(OCCc2ccsc2)cc(OCCc2ccsc2)n1)C(=O)O (stereo not given) = 5.03
CCCCC(Sc1nc(OCc2ccccc2)cc(OCc2ccccc2)n1)C(=O)O (stereo not given) = 5.30
CCCCC(Cc1cccc(OCCc2ccccc2)c1OCCc1ccccc1)C(=O)O (stereo not given) = 5.31
CCCCC(Sc1nc(OCCC(C)C)cc(OCCC(C)C)n1)C(=O)O (stereo not given) = 5.17
O=C(O)C(Sc1nc(OCCc2ccccc2)cc(OCCc2ccccc2)n1)c1ccccc1 (stereo not given) = 5.31

Dear colleague, could you send me pIC50 for each of the items below? Thanks.
1. CCCCC(Sc1nc(OCCc2ccc(OC)cc2)cc(OCCc2ccc(OC)cc2)n1)C(=O)O (stereo not given)
2. CCCCC(Sc1nc(OCCc2ccc(C(F)(F)F)cc2)cc(OCCc2ccc(C(F)(F)F)cc2)n1)C(=O)O (stereo not given)
3. CCCCC(Sc1nc(OCCc2ccc(C)cc2)cc(OCCc2ccc(C)cc2)n1)C(=O)O (stereo not given)

OUT:
5.15
5.66
5.51
